TARGET: Fibroblast growth factor 22 (Homo sapiens)
MEASUREMENT NOTES: binders of human FGF22 protein, primary screen, FGF22 synaptogenesis inhibitor project, biophysical, thermal shift, single point (AID 651658)
STATED CONDITIONS: recombinant FGF22 thermal shift, SYPRO orange fluorescence; at 9.99 µM; hits give high values; percent of sucrose octasulfate shift, DMSO zero
The campaign covered roughly 340,000 compounds. About 5,100 (1.5%) were called active. This excerpt belongs to a sample that is enriched for actives.
Listing of recorded activity (Tm shift, normalised) by entry.
Answer format: numeric, % implied, no suffix.

Answered examples (2):
> print(dat)
                    structure.smiles.string                                    target  unit.tag  measured.number
1  Cc1nc2ccc(NC(=O)c3cccc(S(=O)(=O)N4CCOCC4)c3)cc2s1  Fibroblast growth factor 22 (Homo sapiens)         %             1.04
2  NS(=O)(=O)c1ccc(NC(=O)COC(=O)CCc2c[nH]c3ccccc23)cc1  Fibroblast growth factor 22 (Homo sapiens)         %             43.3

Supply reported activity (Tm shift, normalised) belonging to this compound: OC[C@@H]1[C@H](c2ccc(Br)cc2)[C@@H]2CN(Cc3ccccn3)CCCCN12 0.488

Identify activity (Tm shift, normalised) associated with the compound CC(C)(C)C(=O)NCCCNc1ccc([N+](=O)[O-])cc1 43.5

Look up and report measured activity (Tm shift, normalised) for this entry: C[C@@H]1CN([C@@H](C)CO)C(=O)Cc2cc(NS(C)(=O)=O)ccc2O[C@H]1CN(C)S(=O)(=O)c1ccc(F)cc1 0.13

Return value of activity (Tm shift, normalised) for input O=C(NCCNc1ccc([N+](=O)[O-])cc1)c1cccc2c(Br)cccc12 , no commentary. 0

---

TARGET: Fibroblast growth factor 22 (Homo sapiens) (UniProt Q9HCT0)
Sequence (Q9HCT0 whole entry, looked up): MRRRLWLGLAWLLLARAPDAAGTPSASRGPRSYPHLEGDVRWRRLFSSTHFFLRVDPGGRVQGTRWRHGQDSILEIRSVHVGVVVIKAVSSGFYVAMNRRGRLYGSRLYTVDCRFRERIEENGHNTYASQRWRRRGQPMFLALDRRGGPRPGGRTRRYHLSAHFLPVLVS
MEASUREMENT NOTES: binders of human FGF22 protein, primary screen, FGF22 synaptogenesis inhibitor project, biophysical, thermal shift, single point (AID 651658)
STATED CONDITIONS: recombinant FGF22 thermal shift, SYPRO orange fluorescence; at 9.99 µM; hits give high values; percent of sucrose octasulfate shift, DMSO zero
Out of some 340,000 compounds screened, about 5,100 (1.5%) were called active. The sample as a whole holds a higher share of actives than the screen did.
Property: activity (Tm shift, normalised); scope: individual compounds
Hi! Could you send only the number? It should be in %, unit omitted.

> print(dat)
                     structure.smiles.string  unit.tag  measured.number
 1    O=C(NCCc1ccccc1)c1c[nH]c2ccc(F)cc2c1=O         %             0.52
 2  CO[C@H](CN(C)C(=O)c1cnccn1)[C@@H](C)CN([C@@H](C)CO)S(=O)(=O)c1ccc(C)cc1         %            0.044
 3  CO[C@@H]1CN(C)C(=O)c2cc(NC(=O)Nc3cccc(F)c3)ccc2OC[C@H](C)N(C)C[C@@H]1C         %            -0.31
 4  COc1cccc(S(=O)(=O)N(C)C[C@@H]2Oc3cc(C4=CCCCC4)ccc3S(=O)(=O)N([C@H](C)CO)C[C@H]2C)c1         %            0.057
 5       O=C(NCCc1ccc(F)cc1)c1n[nH]c2ccccc12         %             43.3
 6  CN1c2ccc(C3=CCCCC3)cc2[C@@H]2[C@@H](CCN2S(=O)(=O)c2ccccc2F)[C@H]1CO         %           -0.132
 7      N#Cc1cccc(Nc2c3c(nc4ccccc24)CCCC3)c1         %            0.042
 8  C[C@H]1CN([C@@H](C)CO)S(=O)(=O)c2ccc(C3=CCCC3)cc2O[C@H]1CN(C)C(=O)Nc1ccc2c(c1)OCO2         %             1.26
 9  O=C(C[C@@H]1CC[C@@H]2[C@H](COC[C@H](O)CN2C(=O)C2CC2)O1)NCc1ccncc1         %            0.141
10  CO[C@@H](CN(C)S(=O)(=O)c1ccccc1)[C@@H](C)CN(Cc1ccccc1Cl)[C@H](C)CO         %            0.183

Determine from records and report activity (Tm shift, normalised) for Cc1ccc(NC(=O)CN(C)CC(=O)Nc2cccc(F)c2)cc1[N+](=O)[O-] 43.3
